Ref: the kinase profiling compilation of Christmann-Franck et al. (2016)

Measured residual activity values are reported for all entries that follow.
Target: CSNK1G3 (human) (UniProt Q9Y6M4)
Sequence (Q9Y6M4 whole entry, looked up): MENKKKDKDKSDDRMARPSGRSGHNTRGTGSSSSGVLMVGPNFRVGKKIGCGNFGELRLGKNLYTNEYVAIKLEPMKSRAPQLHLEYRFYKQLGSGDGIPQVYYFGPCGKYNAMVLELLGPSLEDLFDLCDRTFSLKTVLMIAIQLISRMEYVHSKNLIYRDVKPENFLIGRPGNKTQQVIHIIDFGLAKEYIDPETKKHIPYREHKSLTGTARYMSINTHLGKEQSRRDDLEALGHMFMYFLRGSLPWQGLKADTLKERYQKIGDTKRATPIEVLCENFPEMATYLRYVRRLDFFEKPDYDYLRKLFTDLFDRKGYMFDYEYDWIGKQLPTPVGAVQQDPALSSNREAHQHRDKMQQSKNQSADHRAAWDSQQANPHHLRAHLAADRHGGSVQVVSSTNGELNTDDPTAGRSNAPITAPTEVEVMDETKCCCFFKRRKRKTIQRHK
Assay: radiometric filter-binding kinase assay, Kinase HotSpot
Settings: compound 0.5 µM; ATP 10 µM
Note: unit % is implicit; provide only the numeric part.

Worked cases, residual activity given:
record-smiles	system-under-test	unit	residual activity
COc1cc2ncnc(Nc3ccc(O)c(Br)c3)c2cc1OC	CSNK1G3 (human) (UniProt Q9Y6M4)	%	101
COc1cccc(-c2cc(=O)c3ccccc3o2)c1N	CSNK1G3 (human) (UniProt Q9Y6M4)	%	97.7
O=C1NC(=O)c2cc(Nc3ccc(F)cc3)c(Nc3ccc(F)cc3)cc21	CSNK1G3 (human) (UniProt Q9Y6M4)	%	90.7

Exam item: Give residual activity only, for O=c1c2ccccc2[nH]c(=S)n1CCN1CCC(=C(c2ccc(F)cc2)c2ccc(F)cc2)CC1 , using CSNK1G3 (human) (UniProt Q9Y6M4) data.
Marked response: 97.1

###

Target: FGFR4 (human) (UniProt P22455)
Sequence (P22455 whole entry, looked up): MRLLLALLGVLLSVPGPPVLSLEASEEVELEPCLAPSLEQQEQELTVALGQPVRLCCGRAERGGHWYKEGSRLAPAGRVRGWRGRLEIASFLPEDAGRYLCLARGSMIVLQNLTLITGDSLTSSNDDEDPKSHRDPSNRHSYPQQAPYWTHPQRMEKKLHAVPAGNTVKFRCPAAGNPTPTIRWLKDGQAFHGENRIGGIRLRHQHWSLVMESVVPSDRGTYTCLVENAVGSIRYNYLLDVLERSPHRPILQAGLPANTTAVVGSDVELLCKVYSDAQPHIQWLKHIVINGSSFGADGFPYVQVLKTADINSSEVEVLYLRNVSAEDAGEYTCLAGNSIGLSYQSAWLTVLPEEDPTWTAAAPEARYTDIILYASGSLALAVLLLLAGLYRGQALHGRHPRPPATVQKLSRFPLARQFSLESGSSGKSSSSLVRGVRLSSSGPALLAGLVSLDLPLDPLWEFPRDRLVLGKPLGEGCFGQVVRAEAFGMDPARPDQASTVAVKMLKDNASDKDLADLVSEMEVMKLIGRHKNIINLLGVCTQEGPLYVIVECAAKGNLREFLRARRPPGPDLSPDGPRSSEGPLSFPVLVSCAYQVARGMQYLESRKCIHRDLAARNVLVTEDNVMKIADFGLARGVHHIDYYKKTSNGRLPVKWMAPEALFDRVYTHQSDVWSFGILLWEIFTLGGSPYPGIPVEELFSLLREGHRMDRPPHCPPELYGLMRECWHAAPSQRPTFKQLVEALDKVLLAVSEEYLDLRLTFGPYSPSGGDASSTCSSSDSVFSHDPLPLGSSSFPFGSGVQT
Experiment: radiometric filter-binding kinase assay, Kinase HotSpot
Details: compound 0.5 µM; ATP 10 µM
quantity-measured: residual activity (%)
# number only, unit % dropped from output

record-smiles	residual activity [%]
O=c1c2ccccc2[nH]c(=S)n1CCN1CCC(=C(c2ccc(F)cc2)c2ccc(F)cc2)CC1	105
Cc1cc(Nc2nc(-c3ccccc3)nc3ccccc23)n[nH]1	81.9

Exam item: Retrieve residual activity measured for COc1cc2ncnc(Nc3ccc(O)c(Br)c3)c2cc1OC and print it.
Marked response: 103

Exam item: Provide only the value of recorded residual activity for O=C(c1ccccc1)c1ccc(N2CCOCC2)cc1O
Marked response: 106

Exam item: Quick one: give measured residual activity for O=c1cc(N2CCOCC2)oc2c(-c3ccccc3)cccc12
Marked response: 104

Exam item: Supply reported residual activity belonging to this compound: CCOc1cc2ncnc(Nc3cccc(Br)c3)c2cc1OCC
Marked response: 87.1

###

Target: NEK3 (human) (UniProt P51956)
Sequence (P51956 whole entry, looked up): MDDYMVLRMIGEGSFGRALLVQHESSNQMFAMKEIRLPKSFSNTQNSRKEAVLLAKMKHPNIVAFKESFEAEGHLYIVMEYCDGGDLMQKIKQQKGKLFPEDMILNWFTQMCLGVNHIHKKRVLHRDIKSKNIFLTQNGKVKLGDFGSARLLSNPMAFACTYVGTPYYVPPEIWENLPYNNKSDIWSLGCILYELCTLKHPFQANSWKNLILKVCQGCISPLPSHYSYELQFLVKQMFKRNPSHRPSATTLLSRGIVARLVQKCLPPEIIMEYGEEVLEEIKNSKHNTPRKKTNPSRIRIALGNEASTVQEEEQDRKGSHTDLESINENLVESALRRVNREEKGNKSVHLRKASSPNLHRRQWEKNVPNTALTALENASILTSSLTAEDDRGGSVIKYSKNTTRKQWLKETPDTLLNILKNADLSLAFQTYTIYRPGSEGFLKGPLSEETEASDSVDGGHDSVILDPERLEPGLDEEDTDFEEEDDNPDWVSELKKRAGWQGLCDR
Test: radiometric filter-binding kinase assay, Kinase HotSpot
Settings: compound 0.5 µM; ATP 10 µM
quantity-measured: residual activity (%)
Express it in %; write the number only.

record-smiles	quantity-measured	measured-result
O=c1[nH]c2ccccc2n1C1CCN(Cc2ccc(-c3nc4cc5[nH]cnc5cc4nc3-c3ccccc3)cc2)CC1	residual activity	97.2

Kindly review the next molecule as well.
Exam item: Report its residual activity with NEK3 (human) (UniProt P51956) as the test system: N#Cc1c(NC(=O)c2cccc3ccccc23)sc2c1CCCC2
Marked response: 93.2

###

// values below are reported residual activity
Molecular target: CDK4 CCND3 (human) (UniProt P30281+P11802)
Sequence (P11802 whole entry, looked up): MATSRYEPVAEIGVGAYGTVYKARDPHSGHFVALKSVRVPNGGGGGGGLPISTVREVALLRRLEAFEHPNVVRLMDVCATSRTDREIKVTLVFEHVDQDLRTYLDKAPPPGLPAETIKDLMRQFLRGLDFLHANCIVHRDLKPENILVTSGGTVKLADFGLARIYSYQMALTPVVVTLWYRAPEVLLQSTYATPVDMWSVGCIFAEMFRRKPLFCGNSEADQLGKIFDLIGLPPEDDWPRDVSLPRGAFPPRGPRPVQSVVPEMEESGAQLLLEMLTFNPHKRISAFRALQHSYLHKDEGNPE
Sequence (P30281 whole entry, looked up): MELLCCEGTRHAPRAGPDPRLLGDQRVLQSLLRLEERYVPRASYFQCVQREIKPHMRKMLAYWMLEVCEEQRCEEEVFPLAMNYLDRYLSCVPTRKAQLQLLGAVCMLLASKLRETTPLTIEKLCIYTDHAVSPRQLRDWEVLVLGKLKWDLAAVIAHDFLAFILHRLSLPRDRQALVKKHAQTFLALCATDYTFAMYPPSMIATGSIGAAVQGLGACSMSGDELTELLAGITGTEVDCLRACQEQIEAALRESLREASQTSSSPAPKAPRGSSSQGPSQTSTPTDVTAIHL
Assay: radiometric filter-binding kinase assay, Kinase HotSpot
Conditions: compound 0.5 µM; ATP 10 µM
All answers are understood in %, so give the number only.

Worked examples follow.
record-smiles	residual activity, %
Cn1cc(/C=C2\C(=O)Nc3ccc(S(N)(=O)=O)cc32)c2ccccc21	94
N#CCCc1ccc2c(c1)-c1[nH]c3ccc([N+](=O)[O-])cc3c1CC(=O)N2	25.9
O=C(c1ccccc1)c1ccc(N2CCOCC2)cc1O	96.2
COc1cc2c(N3CCN(C(=O)Nc4ccc(OC(C)C)cc4)CC3)ncnc2cc1OCCCN1CCCCC1	104
N/C(=N\N=C/c1ccc(-c2cccc([N+](=O)[O-])c2)o1)N[N+](=O)[O-]	103
CCCCc1c(-c2ccc(O)cc2)[nH]c2nccnc12	71
CCc1nc(-c2ccc(OC)cc2)[nH]c1-c1ccncc1	105
O=C(O)c1ccc2c3c1cccc3c(=O)n1c3ccccc3nc21	102
N#C/C(=C1/Nc2ccccc2S1)c1ccnc(NCCc2cccnc2)n1	85.7
CCOc1cc2ncnc(Nc3cccc(Br)c3)c2cc1OCC	97.8

Exam item: Supply reported residual activity belonging to this molecule: COc1cc2c(cc1OC)-c1[nH]nc(Nc3cccc(F)c3)c1C2
Marked response: 95.4

Exam item: Read off the recorded residual activity for COc1cc2ncnc(Nc3ccc(O)c(Br)c3)c2cc1OC
Marked response: 110

Exam item: Look up and state reported residual activity for COc1cccc(-c2cc(=O)c3ccccc3o2)c1N
Marked response: 101

Exam item: Given O=c1c(-c2ccc(F)cc2)c(-c2ccncc2)[nH]n1-c1ccc(Cl)cc1 , respond with its residual activity.
Marked response: 101

Exam item: Report residual activity, nothing else, for this molecule: COc1cc2c(Nc3ccc(Br)cc3F)ncnc2cc1OCC1CCN(C)CC1
Marked response: 101
